# tgt: HLA-B*44 (human)
# method-description: UV peptide exchange ELISA
Below, each of the binders is paired with its reported peptide exchange yield value.

>  <binder>
ASSSGPMRWW

>  <peptide exchange yield>
20 to 50%

$$$$
>  <binder>
RELQHEHSL

>  <peptide exchange yield>
50 to 75%

$$$$
>  <binder>
AEMLERVIKNY

>  <peptide exchange yield>
> 75%

$$$$
>  <binder>
RELENCFQIQ

>  <peptide exchange yield>
50 to 75%

$$$$
>  <binder>
SEDDPILQI

>  <peptide exchange yield>
50 to 75%

$$$$
>  <binder>
ALNPYQYQY

>  <peptide exchange yield>
50 to 75%

$$$$
>  <binder>
EEVNYINTF

>  <peptide exchange yield>
50 to 75%

$$$$
>  <binder>
GEVHPSEMI

>  <peptide exchange yield>
50 to 75%

$$$$
>  <binder>
VEAPGPVHVYW

>  <peptide exchange yield>
> 75%

$$$$
>  <binder>
KEADIHFLI

>  <peptide exchange yield>
> 75%

$$$$
>  <binder>
IEFIHPQAF

>  <peptide exchange yield>
> 75%

$$$$
>  <binder>
AEMLESVIKNY

>  <peptide exchange yield>
50 to 75%

$$$$
>  <binder>
EEIERFFKL

>  <peptide exchange yield>
50 to 75%

$$$$
>  <binder>
SENLFFASF

>  <peptide exchange yield>
> 75%

$$$$
>  <binder>
AEDEPAAAHL

>  <peptide exchange yield>
20 to 50%

$$$$
>  <binder>
AETLSTIQI

>  <peptide exchange yield>
50 to 75%

$$$$
